Observed log10 of EC50 for Adenosine A2 receptor (Rattus norvegicus, UniProt P29276+P30543), reported per entry below.
Values reflect log10 of reported EC50 (nM).

CCNC(=O)[C@H]1O[C@@H](n2cnc3c(N)nc(C#CC(OCC)OCC)nc32)[C@H](O)[C@@H]1O
2.58

Query: Using the record for CCNC(=O)[C@H]1O[C@@H](n2cnc3c(N)nc(C#CCN(C)C)nc32)[C@H](O)[C@@H]1O , report its log10 of EC50.
Reply: 2.15

Query: Using the record for CCNC(=O)[C@H]1O[C@@H](n2cnc3c(N)nc(C#CCCCC#N)nc32)[C@H](O)[C@@H]1O , report its log10 of EC50.
Reply: 2.05

Query: Using the record for CCNC(=O)[C@H]1O[C@@H](n2cnc3c(N)nc(C#CC(C)(O)CC(C)C)nc32)[C@H](O)[C@@H]1O (some centres undefined) , report its log10 of EC50.
Reply: 2.53

Query: Using the record for C=C(C)C#Cc1nc(N)c2ncn([C@@H]3O[C@H](C(=O)NCC)[C@@H](O)[C@H]3O)c2n1 , report its log10 of EC50.
Reply: 3.08

Query: Using the record for CCNC(=O)[C@H]1O[C@@H](n2cnc3c(N)nc(C#CCC(C)O)nc32)[C@H](O)[C@@H]1O (some centres undefined) , report its log10 of EC50.
Reply: 3.22

Just for reference, ChEMBL document CHEMBL1127534 is where these values come from.
